Biological target: Taq DNA polymerase (UniProt P19821 P19821:1-832)
Sequence (P19821 whole entry, one chain of several): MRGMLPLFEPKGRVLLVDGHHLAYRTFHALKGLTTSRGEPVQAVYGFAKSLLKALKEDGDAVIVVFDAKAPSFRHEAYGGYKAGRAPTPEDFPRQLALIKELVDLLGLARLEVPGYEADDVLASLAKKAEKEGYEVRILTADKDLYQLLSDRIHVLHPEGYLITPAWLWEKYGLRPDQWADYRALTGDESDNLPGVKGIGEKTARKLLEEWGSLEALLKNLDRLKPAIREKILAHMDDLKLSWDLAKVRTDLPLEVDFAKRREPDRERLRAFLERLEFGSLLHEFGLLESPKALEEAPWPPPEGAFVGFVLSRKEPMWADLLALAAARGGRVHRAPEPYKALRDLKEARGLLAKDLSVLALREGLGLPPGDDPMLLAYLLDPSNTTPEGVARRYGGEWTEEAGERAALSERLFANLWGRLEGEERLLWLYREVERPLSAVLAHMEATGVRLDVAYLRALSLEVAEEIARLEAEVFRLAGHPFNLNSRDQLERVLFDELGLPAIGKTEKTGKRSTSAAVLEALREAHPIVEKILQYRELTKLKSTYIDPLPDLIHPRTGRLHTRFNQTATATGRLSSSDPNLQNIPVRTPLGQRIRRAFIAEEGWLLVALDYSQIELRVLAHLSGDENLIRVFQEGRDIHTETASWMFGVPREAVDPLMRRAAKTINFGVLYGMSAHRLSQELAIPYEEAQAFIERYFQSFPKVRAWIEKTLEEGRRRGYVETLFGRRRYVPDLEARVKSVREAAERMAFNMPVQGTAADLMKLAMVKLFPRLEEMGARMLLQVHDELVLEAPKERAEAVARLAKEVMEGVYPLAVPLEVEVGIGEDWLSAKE
Test: inhibition; hairpin extension assay
Conditions: tags: rTaq, 94 kDa, Roche Molecular Systems / Perkin Elmer; stem-loop dimer
ASSAY ENDPOINT: pIC50
Notebook: values listed as pIC50 are -log10 of the concentration (mol/L).

Lab note: D.30-D.30 homodimer (ssDNA, two Trnc.2-30 copies joined with symmetrical 3'-3' branching CPG linker (linker region drawn in figure only)) DNA 1: GCCGGCCAATGTACAGTATTGGCCGGC DNA 2: GCCGGCCAATGTACAGTATTGGCCGGC gave pIC50 of 7.85
